- tested target: human CB1 (Homo sapiens, UniProt P21554)
- Sequence (P21554 whole entry): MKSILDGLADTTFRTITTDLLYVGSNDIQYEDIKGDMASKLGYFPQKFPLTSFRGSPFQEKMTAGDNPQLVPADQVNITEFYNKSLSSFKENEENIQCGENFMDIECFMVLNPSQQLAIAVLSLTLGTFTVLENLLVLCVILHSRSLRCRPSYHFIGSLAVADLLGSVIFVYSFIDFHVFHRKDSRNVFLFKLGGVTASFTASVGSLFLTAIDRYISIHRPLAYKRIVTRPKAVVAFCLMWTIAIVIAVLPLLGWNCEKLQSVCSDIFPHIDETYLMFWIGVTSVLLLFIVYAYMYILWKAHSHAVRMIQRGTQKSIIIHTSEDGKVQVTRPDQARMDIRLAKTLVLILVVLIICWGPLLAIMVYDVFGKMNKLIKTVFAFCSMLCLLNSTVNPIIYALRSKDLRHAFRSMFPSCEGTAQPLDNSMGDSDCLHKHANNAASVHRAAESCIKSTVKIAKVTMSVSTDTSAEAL
- assay explanation: cAMP determination in functional hCB1-HEK stable cells (HTRF)
pEC50: −log10 of the molar value.
metric name: pEC50

In [3]: df
Out[3]:
                                smiles_repr                             tested_target  recorded_measurement
0  Cc1cccc2c(Nc3cccc(C(F)F)c3)ncc(C(=O)N3CCOCC3)c12  human CB1 (Homo sapiens, UniProt P21554)                > 7.00
1  O=C(c1ccc(Nc2cccc(F)c2)c2ccccc12)N1CCOCC1  human CB1 (Homo sapiens, UniProt P21554)                < 7.00
2  Cc1cccc2c(Nc3cccc(Cl)c3)ncc(C(=O)N3CCOCC3)c12  human CB1 (Homo sapiens, UniProt P21554)                < 7.00
3  Cc1cccc2c(Oc3ccc(F)cc3Cl)ncc(C(=O)N3CCOCC3)c12  human CB1 (Homo sapiens, UniProt P21554)                < 7.00
4  Cc1cccc2c(Nc3cc(F)cc(F)c3)ncc(CN3CCOCC3)c12  human CB1 (Homo sapiens, UniProt P21554)                > 7.00

---

- tested target: hCB2 (Homo sapiens, UniProt P34972)
- Sequence (P34972 whole entry): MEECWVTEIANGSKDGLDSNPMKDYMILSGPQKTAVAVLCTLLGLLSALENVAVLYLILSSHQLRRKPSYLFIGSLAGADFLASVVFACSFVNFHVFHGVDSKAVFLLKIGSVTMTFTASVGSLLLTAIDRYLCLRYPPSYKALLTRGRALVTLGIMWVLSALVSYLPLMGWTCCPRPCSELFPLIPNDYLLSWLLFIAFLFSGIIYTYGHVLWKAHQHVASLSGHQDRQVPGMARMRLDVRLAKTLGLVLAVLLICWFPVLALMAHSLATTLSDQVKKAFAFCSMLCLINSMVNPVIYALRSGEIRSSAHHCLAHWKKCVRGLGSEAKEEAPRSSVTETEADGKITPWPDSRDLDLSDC
- assay explanation: cAMP determination in functional hCB2-CHO stable cells (HTRF)
- Type: cell-based
pEC50: −log10 of the molar value.
metric name: pEC50

                                    compound  recorded_measurement
 0  CCN(C)C(=O)c1ccc(Nc2cccc(C(F)(F)F)c2F)c2cccc(C)c12 [compound 413]                > 8.00
 1  O=C(c1ccc(Nc2cccc(F)c2)c2ccccc12)N1CCOCC1 [Example-183]          6.00 to 8.00
 2  Cc1ccc(Nc2ccc(C(=O)N3CCOCC3)c3c(C)cccc23)cc1F [Example-152]                > 8.00
 3  Cc1cccc2c(Nc3cccc(Cl)c3)ncc(C(=O)N3CCOCC3)c12 [Example-1]                > 8.00
 4  Cc1cccc2c(Nc3cccc(F)c3F)ccc(C(=O)N3CC4CC(C3)O4)c12 [Example-172]                > 8.00
 5  Cc1c(Cl)cccc1Nc1ncc(C(=O)N2CC3CC(C2)O3)c2c(C)cccc12 [Example-65]                > 8.00
 6  O=C(c1ccc(Nc2cccc(Cl)c2)c2ccccc12)N1CCOCC1 [Example-179]                > 8.00
 7  CCN(C)C(=O)c1cnc(Nc2cccc(C(F)(F)F)c2C)c2cccc(Cl)c12 [compound 331]                > 8.00
 8  Cc1cc(Nc2ncc(C(=O)N3CCCCC3)c3c(C)cccc23)ccc1F [Example-94]                > 8.00
 9  O=C(NCC1CCOCC1)c1ccc(Nc2cccc(Cl)c2)c2ccccc12 [Example-180]          6.00 to 8.00
10  CCN(CC)C(=O)c1cnc(Nc2cccc(Cl)c2F)c2cccc(C)c12 [compound 282]          6.00 to 8.00
11  Cc1cccc2c(Nc3cccc(CF)c3)ncc(C(=O)N3CCOCC3)c12 [Example-12]          6.00 to 8.00
12  Cc1cccc2c(Nc3ccc(F)c(C(F)(F)F)c3)ncc(C(=O)N3CCCCC3)c12 [Example-27]                > 8.00
13  Cc1cccc2c(Nc3cccc(Cl)c3)ncc(C(=O)N3CC4CC4C3)c12 (stereo not drawn) [Example-75]                > 8.00
14  CCN(C)C(=O)c1cnc(Nc2cccc(Cl)c2C)c2cccc(Cl)c12 [compound 357]                > 8.00
15  O=C(c1ccc(Nc2ccc(Cl)cc2Cl)c2ccccc12)N1CCOCC1 [Example-197]          6.00 to 8.00
16  O=C(c1cnc(Nc2cccc(Cl)c2)c2cccc(C3CC3)c12)N1CCOCC1 [Example-114]                > 8.00
17  Cc1cccc2c(Nc3cccc(Cl)c3)ncc(C(=O)N3CCCC3)c12 [Example-102]          6.00 to 8.00
